- System: SHI-1
- test.details: cell viability (% survival relative to DMSO control, bortezomib = 0%); higher = less cytotoxic
- details: 1 nM; 72 h
Counter-ions that a name gives are not always drawn.
value.kind: cell viability (%)

Nc1ccccc1C(=O)C[C@H](N)C(=O)O [L-Kynurenine] | 120
O=c1cc(-c2ccccc2)oc2cc(O)c(O)c(O)c12 [Baicalein] | 109
CC[C@H](C)C(=O)O[C@H]1C[C@@H](C)C=C2C=C[C@H](C)[C@H](CC[C@@H]3C[C@@H](O)CC(=O)O3)[C@H]21 [Lovastatin] | 97.5
CCOC(=O)c1ccc(-c2ccc(OC(=O)N(C)Cc3cccc(-c4ccncc4)c3)cc2)cc1 [WWL113] | 114
O=C(NNc1ccccc1)c1ccncc1 [PluriSln 1] | 91.5
CC(C)(C#N)c1cc(Cn2cncn2)cc(C(C)(C)C#N)c1 [Anastrozole] | 108
CN(C)C(=O)[C@H](O)[C@H](Cc1ccccc1)NC(=O)c1cc2cc(Cl)ccc2[nH]1 | 106
Cc1cc(CS(=O)(=O)c2ccccc2)cc(OCc2ccc(CN3CCC[C@@H]3CO)cc2)c1 [PF-543 hydrochloride] | 82.3

###

- Test system: HEL
- test.details: cell viability (% survival relative to DMSO control, bortezomib = 0%); higher = less cytotoxic
- details: 10000 nM; 72 h
Counter-ions that a name gives are not always drawn.
value.kind: cell viability (%)

C=C(C)[C@H]1Cc2c(ccc3c2O[C@@H]2COc4cc(OC)c(OC)cc4[C@@H]2C3=O)O1 [Rotenone] | 1.89
CCCCC/C=C\C/C=C\C/C=C\C/C=C\CCCCN1C(=O)C=CC1=O [N-Arachidonylmaleimide] | 89.7
Oc1ccc(Nc2nc(-c3ccc(Cl)cc3)cs2)cc1 [SKI II] | 5.26
Cc1cc(CS(=O)(=O)c2ccccc2)cc(OCc2ccc(CN3CCC[C@@H]3CO)cc2)c1 [PF-543 hydrochloride] | 94

###

- System: HEL
- test.details: cell viability (% survival relative to DMSO control, bortezomib = 0%); higher = less cytotoxic
- details: 10000 nM; 72 h
value.kind: cell viability (%)

C[C@](N)(Cc1ccc(O)cc1)C(=O)O [Metirosine] | 108
O=C(NNc1ccccc1)c1ccncc1 [PluriSln 1] | 78.1
Cc1c(-c2ccc(-c3ccccc3F)cc2)nc2ccc(F)cc2c1C(=O)O [Brequinar] | 27.8
COc1ccc2c(C(=S)N(C)CC(=O)O)cccc2c1C(F)(F)F [Tolrestat] | 101
Nc1nc(Cl)nc2c1ncn2[C@H]1C[C@H](O)[C@@H](CO)O1 [Cladribine] | 0.141
O=C(O)Cn1nnc(-c2cc(N3CCC(Oc4cc(F)ccc4Br)CC3)no2)n1 [MK-8245] | 91.2
Cc1cn([C@H]2C[C@H](O)[C@@H](COP(=O)(O)OP(=O)(O)O)O2)c(=O)[nH]c1=O [Thymidine diphosphate] | 103
CCOP(=O)(OCC)C(=Cc1cc(C(C)(C)C)c(O)c(C(C)(C)C)c1)P(=O)(OCC)OCC | 108
Cc1ccccc1C(C(=O)NC1CCCCC1)N(C(=O)Cn1ccnc1C)c1cccc(F)c1 (stereo not given) [AGI-5198] | 101
CCOC(=O)c1ccc(-c2ccc(OC(=O)N(C)Cc3cccc(-c4ccncc4)c3)cc2)cc1 [WWL113] | 99.6
Cl.NC(CCC(=O)Nc1ccc([N+](=O)[O-])cc1)C(=O)O (stereo not given) [GPNA] | 104
O=C(O)C1=CC(=C(c2ccc(O)c(C(=O)O)c2)c2ccc(O)c(C(=O)O)c2)C=CC1=O [Aurintricarboxylic acid] | 21.8
COc1ccc(C(=O)Nc2c(Cl)cncc2Cl)cc1OC1CCCC1 [Piclamilast] | 109
NCCCC(N)(C(=O)O)C(F)F (stereo not given) [Difluoromethylornithine] | 95.9
CCCCCCCCCCC[C@@H](C[C@@H]1OC(=O)[C@H]1CCCCCC)OC(=O)[C@H](CC(C)C)NC=O [Orlistat] | 90.8
